molecular target: Lysophosphatidic acid receptor 5 (Homo sapiens)
Sequence (Q9H1C0 whole entry): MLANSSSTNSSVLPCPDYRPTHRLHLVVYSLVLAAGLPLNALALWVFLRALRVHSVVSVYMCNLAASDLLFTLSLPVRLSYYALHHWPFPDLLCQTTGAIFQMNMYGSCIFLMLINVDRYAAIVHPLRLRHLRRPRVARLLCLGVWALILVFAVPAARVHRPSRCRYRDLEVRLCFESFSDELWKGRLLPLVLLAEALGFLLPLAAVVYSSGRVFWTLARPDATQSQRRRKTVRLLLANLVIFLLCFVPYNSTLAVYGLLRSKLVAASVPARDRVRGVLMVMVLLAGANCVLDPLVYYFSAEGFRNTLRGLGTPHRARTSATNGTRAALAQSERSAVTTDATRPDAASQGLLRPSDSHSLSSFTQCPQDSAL
MEASURE: IC50

Fill blank: measured IC50 of the molecule Cc1csc2c(N[C@@H](C)CN3CCN(S(=O)(=O)c4ccc(Cl)c(Cl)c4)CC3)ncnc12 is ____.
> 50.1 µM

###

molecular target: Lysophosphatidic acid receptor 4 (Homo sapiens, UniProt Q99677)
Sequence (Q99677 whole entry): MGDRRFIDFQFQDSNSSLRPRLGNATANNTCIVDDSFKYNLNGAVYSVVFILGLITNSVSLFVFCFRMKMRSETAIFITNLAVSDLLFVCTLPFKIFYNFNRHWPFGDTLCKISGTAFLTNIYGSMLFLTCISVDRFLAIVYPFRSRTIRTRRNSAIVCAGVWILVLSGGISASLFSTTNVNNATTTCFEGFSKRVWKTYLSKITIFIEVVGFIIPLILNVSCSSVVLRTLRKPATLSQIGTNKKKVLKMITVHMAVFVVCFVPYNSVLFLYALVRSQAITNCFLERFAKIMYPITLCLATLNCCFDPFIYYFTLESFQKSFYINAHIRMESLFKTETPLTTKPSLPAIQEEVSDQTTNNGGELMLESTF
MEASURE: IC50 (µM)
Give bare numbers, in µM.

Fill blank: measured IC50 of the molecule Cc1csc2c(N[C@@H](C)CN3CCN(S(=O)(=O)c4ccc(Cl)c(Cl)c4)CC3)ncnc12 is ____.
6.31

###

assay: in vivo; conditions: C57BL/6J, mouse, lung, po, 30 mg/kg
For each record, write down the corresponding Cmax.
One number for each entry, in µg/mL.

Reference set, count: 4
COC(=O)Nc1nc(C)c(S(=O)(=O)N2CCN(C[C@H](C)Nc3ncnc4c(-c5cccc(CN6CCCC6)c5)cccc34)CC2)s1 = 2.68
COC(=O)Nc1nc(C)c(S(=O)(=O)N2CCN(C[C@H](C)Nc3ncnc4c(-c5cccc(CN(C)C)c5)cccc34)CC2)s1 = 7.03
COC(=O)Nc1nc(C)c(S(=O)(=O)N2CCN(C[C@H](C)Nc3ncnc4c(-c5sc(C)nc5C)cccc34)CC2)s1 = 19.9
COC(=O)Nc1nc(C)c(S(=O)(=O)N2CCN(C[C@H](C)Nc3ncnc4c(-c5cccnc5C)cccc34)CC2)s1 = 8.45

For the next question, use this compound.
Fill blank: measured Cmax of the compound COC(=O)Nc1nc(C)c(S(=O)(=O)N2CCN(C[C@H](C)Nc3ncnc4c(-c5c(C)noc5C)cccc34)CC2)s1 is ____.
15.1
